The entries below are paired with their reported potency estimated from few doses.
Test system: ADCK3
Design: species or system human, MV4-11 + K-562 + COLO205 + SK-N-BE2 + OVCAR-8
settings: read-out: apparent Kd; compound concentrations:100 nM and 1000 nM (sheet 'Samples'); n = 1
Just the number please, in nM, no unit attached.

INSERT INTO assay_data (compound, endpoint_label, recorded_value) VALUES
  ('CNC(=O)c1c(F)cccc1Nc1nc(Nc2cc3c(cc2OC)CCN3C(=O)CN(C)C)nc2[nH]ccc12', 'potency estimated from few doses', 1340);

potency estimated from few doses reading for N#Cc1ccc(-c2cc(-c3c[nH]nc3-c3ccccn3)ccn2)cc1 [GW693028X] : 671

Quick note, potency estimated from few doses for NC(=O)c1cccnc1COc1cc(-c2ccc(N3CCOCC3)nc2)cc2ncccc12 landed at 257
